- Test system: human mesenchymal stem cells (hMSCs)
- assayName: Alizarin red staining for calcium phosphate deposits (ECM mineralization, bone cell maturation)
- Format: cell-based
- testContext: OS started three days after siRNA transfection and continued for 9 days
reportedEndpoint: intensity of alizarin red staining (bone cell maturation), 3+9OS

INSERT INTO results (seqstring, result) VALUES
  ('UGCGGGUGCUCAACGUGGA (siRNA; listed as RNA, chemistry not fully specified) [siP2RY11, siRNA targeting purinergic receptor P2Y, G-protein coupled, 11]', 'dramatically enhanced'),
  ('CCUCUUCGUGGCUACAUCU (siRNA; listed as RNA, chemistry not fully specified) [siSLC12a2, siRNA targeting solute carrier family 12, member 2]', 'dramatically enhanced');

###

- System: human mesenchymal stem cells (hMSCs)
- assayName: Alizarin red staining for calcium phosphate deposits (ECM mineralization, bone cell maturation)
- Type: cell-based
- testContext: OS started three days after siRNA transfection and continued for 9 days
reportedEndpoint: intensity of alizarin red staining (bone cell maturation), 3+9OS

INSERT INTO results (seqstring, experimentalsystem, result) VALUES
  ('UCGAAGAUUGAGGACUACU (siRNA; listed as RNA, chemistry not fully specified) [siGNAS, siRNA targeting GNAS complex locus]', 'human mesenchymal stem cells (hMSCs)', 'dramatically enhanced'),
  ('GCCACACAAAGCAGCAACA (siRNA; listed as RNA, chemistry not fully specified) [siADK, siRNA targeting adenosine kinase]', 'human mesenchymal stem cells (hMSCs)', 'dramatically enhanced'),
  ('UGUGCUACACAGUCAUUAC (siRNA; listed as RNA, chemistry not fully specified) [siBIRC4, siRNA targeting baculoviral IAP repeat-containing 4]', 'human mesenchymal stem cells (hMSCs)', 'weak enhancement'),
  ('CAGAUGCAUCGACCAAAAC (siRNA; listed as RNA, chemistry not fully specified) [siMJD, siRNA targeting Machado-Joseph disease (ataxin 3)]', 'human mesenchymal stem cells (hMSCs)', 'no significant effect'),
  ('UGCGAGCCAAGAUGGACAA (siRNA; listed as RNA, chemistry not fully specified) [siKCNT1, siRNA targeting potassium channel, subfamily T, member 1]', 'human mesenchymal stem cells (hMSCs)', 'dramatically enhanced'),
  ('UGCCAAAGAGGAUGUACAU (siRNA; listed as RNA, chemistry not fully specified) [siTBX3, siRNA targeting T-box 3 (ulnar mammary syndrome)]', 'human mesenchymal stem cells (hMSCs)', 'no significant effect'),
  ('CCCGAAAACAUUGCUAGCA (siRNA; listed as RNA, chemistry not fully specified) [siGBDR1, siRNA targeting putative glialblastoma cell differentiation-related]', 'human mesenchymal stem cells (hMSCs)', 'dramatically enhanced'),
  ('GGAGAUCAACAAGCAUUCA (siRNA; listed as RNA, chemistry not fully specified) [siADCY8, siRNA targeting adenylate cyclase 8]', 'human mesenchymal stem cells (hMSCs)', 'weak enhancement');
